Tested on: lung adenocarcinoma cell line A549
measurementDescription: MTT assay, cell proliferation inhibition
Type: cell-based
experimentalContext: Homo sapiens; lung adenocarcinoma cells A549, MTT, 48 h
Text: Material: aptamer triptolide conjugate (AS1411-TP). […]
pIC50: −log10 of the molar value.
reportedProperty: pIC50

- CC(C)[C@]12O[C@H]1[C@@H]1O[C@]13[C@]1(O[C@H]1C[C@H]1C4=C(CC[C@@]13C)C(=O)OC4)[C@@H]2O [TP, Triptolide]: 7.52

* * *

measurementDescription: MTT assay, cytotoxicity on normal cells
Type: cell-based, human
experimentalContext: human, LO2 normal hepatocyte cells; normal hepatocytes LO2, MTT, 48 h
reportedProperty: IC50 at 48 h (nM)

- CC(C)[C@]12O[C@H]1[C@@H]1O[C@]13[C@]1(O[C@H]1C[C@H]1C4=C(CC[C@@]13C)C(=O)OC4)[C@@H]2O [TP, Triptolide]: 9.01
